Origin of measurements: paper PMC10058761

molecular target: human FABP3 (Homo sapiens); construct: His-tag (N); TEV cleavage site (N); made in house; host or cells: E. coli BL21(DE3); test: ITC assay of ligand binding to apo-FABP3; settings: KPi pH 7.6, 25 °C, without TX
Sequence (P05413 whole entry): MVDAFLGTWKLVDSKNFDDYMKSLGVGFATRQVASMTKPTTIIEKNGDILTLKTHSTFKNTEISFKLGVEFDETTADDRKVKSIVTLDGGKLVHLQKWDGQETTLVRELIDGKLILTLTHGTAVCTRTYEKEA
OBSERVED PROPERTY: ΔG (kcal/mol)
Please state the figure in kcal/mol; there is no need to write the unit.

Ask: // output ΔG; input CCCCCCCCCCCCCCCC(=O)SCCNC(=O)CCNC(=O)[C@H](O)C(C)(C)COP(=O)(O)OP(=O)(O)OC[C@H]1O[C@@H](n2cnc3c(N)ncnc32)[C@H](O)[C@@H]1OP(=O)(O)O [C16:0-CoA, palmitoyl-CoA] ; system human FABP3 (Homo sapiens)
Reply: -6.90

Ask: // output ΔG; input CCCCCCCC/C=C\CCCCCCCC(=O)O[C@H](CC(=O)O)C[N+](C)(C)C.[Cl-] [C18:1(n-9)c-carnitine, oleoylcarnitine] ; system human FABP3 (Homo sapiens)
Reply: -7.72

Ask: // output ΔG; input CCCCCCCC(=O)O [C8:0, caprylate] ; system human FABP3 (Homo sapiens)
Reply: -7.82

Ask: // output ΔG; input CCCCCCCC/C=C/CCCCCCCC(=O)O[C@H](CC(=O)O)C[N+](C)(C)C [C18:1(n-9)t-carnitine, elaidoylcarnitine] ; system human FABP3 (Homo sapiens)
Reply: -7.72

Ask: // output ΔG; input CCCCCCCCCCCCCC(=O)O[C@H](CC(=O)O)C[N+](C)(C)C.[Cl-] [C14:0-carnitine, miristoylcarnitine] ; system human FABP3 (Homo sapiens)
Reply: -6.7

Ask: // output ΔG; input CCCCCCCCCC(=O)O [C10:0, caprate] ; system human FABP3 (Homo sapiens)
Reply: -9.01

Ask: // output ΔG; input CC/C=C\C/C=C\C/C=C\C/C=C\C/C=C\CCCC(=O)O[C@H](CC(=O)O)C[N+](C)(C)C [C20:5(n-3)c-carnitine, EPA-carnitine] ; system human FABP3 (Homo sapiens)
Reply: -6.61

Ask: // output ΔG; input CCCCCCCCCCCC(=O)O [C12:0, laurate] ; system human FABP3 (Homo sapiens)
Reply: -9.12
